FYI, the data here is from PubChem BioAssay AID330.

Reported T/C values follow for various compounds
# Tested on: P388 leukemia ip, CD2F1 mice, survival T/C
# PROTOCOL_TEXT: NCI In Vivo Anticancer Drug Screen. Data for tumor model P388 Leukemia (intraperitoneal) in CD2F1 (CDF1) mice
# MEASUREMENT_CONTEXT: endpoint: median survival time; dose: 25.0 mg/kg/injection; schedule: Q04DX003 (ip); vehicle: saline with Tween-80; higher = longer survival
Toxic doses and inconclusive results are not listed.

> print(dat)
                                   compound            result
1            CN(C)c1ccc([N+]([O-])=NC#N)cc1   93 % of control
2  NC(N)=O.NC(N)=O.NC(N)=O.NC(N)=O.NC(N)=O.NC(N)=O.[O-][Cl+3]([O-])([O-])O.[V]   94 % of control
3  CCCCCCCCCCCCC1(O)OC(=O)C(C)=C1C (centres undefined)  102 % of control

**Q:** Return T/C for the following compound: C#CC(OC(=O)NC1CCCCC1)(c1ccccc1)c1ccccc1
**A:** 108 % of control

**Q:** Return T/C for the following compound: CC(C)CCNc1ncnc2[nH]ncc12
**A:** 95 % of control

**Q:** Return T/C for the following compound: CC(=O)CC(=O)c1ccc(C)cc1.CC(=O)CC(=O)c1ccc(C)cc1.[Ni]
**A:** 97 % of control

**Q:** Return T/C for the following compound: COc1cc(C#N)cc(OC)c1
**A:** 109 % of control

**Q:** Return T/C for the following compound: O=C(O)CNC(=O)C(CN1CC(=O)OC1c1ccc([N+](=O)[O-])cc1)N1C(=O)c2ccccc2C1=O (centres undefined)
**A:** 100 % of control

**Q:** Return T/C for the following compound: O=CCC1CC2CCCCN2O1 (centres undefined)
**A:** 102 % of control
